Target: human ACC2 (Homo sapiens (Human))
Sequence (O00763 129-2458): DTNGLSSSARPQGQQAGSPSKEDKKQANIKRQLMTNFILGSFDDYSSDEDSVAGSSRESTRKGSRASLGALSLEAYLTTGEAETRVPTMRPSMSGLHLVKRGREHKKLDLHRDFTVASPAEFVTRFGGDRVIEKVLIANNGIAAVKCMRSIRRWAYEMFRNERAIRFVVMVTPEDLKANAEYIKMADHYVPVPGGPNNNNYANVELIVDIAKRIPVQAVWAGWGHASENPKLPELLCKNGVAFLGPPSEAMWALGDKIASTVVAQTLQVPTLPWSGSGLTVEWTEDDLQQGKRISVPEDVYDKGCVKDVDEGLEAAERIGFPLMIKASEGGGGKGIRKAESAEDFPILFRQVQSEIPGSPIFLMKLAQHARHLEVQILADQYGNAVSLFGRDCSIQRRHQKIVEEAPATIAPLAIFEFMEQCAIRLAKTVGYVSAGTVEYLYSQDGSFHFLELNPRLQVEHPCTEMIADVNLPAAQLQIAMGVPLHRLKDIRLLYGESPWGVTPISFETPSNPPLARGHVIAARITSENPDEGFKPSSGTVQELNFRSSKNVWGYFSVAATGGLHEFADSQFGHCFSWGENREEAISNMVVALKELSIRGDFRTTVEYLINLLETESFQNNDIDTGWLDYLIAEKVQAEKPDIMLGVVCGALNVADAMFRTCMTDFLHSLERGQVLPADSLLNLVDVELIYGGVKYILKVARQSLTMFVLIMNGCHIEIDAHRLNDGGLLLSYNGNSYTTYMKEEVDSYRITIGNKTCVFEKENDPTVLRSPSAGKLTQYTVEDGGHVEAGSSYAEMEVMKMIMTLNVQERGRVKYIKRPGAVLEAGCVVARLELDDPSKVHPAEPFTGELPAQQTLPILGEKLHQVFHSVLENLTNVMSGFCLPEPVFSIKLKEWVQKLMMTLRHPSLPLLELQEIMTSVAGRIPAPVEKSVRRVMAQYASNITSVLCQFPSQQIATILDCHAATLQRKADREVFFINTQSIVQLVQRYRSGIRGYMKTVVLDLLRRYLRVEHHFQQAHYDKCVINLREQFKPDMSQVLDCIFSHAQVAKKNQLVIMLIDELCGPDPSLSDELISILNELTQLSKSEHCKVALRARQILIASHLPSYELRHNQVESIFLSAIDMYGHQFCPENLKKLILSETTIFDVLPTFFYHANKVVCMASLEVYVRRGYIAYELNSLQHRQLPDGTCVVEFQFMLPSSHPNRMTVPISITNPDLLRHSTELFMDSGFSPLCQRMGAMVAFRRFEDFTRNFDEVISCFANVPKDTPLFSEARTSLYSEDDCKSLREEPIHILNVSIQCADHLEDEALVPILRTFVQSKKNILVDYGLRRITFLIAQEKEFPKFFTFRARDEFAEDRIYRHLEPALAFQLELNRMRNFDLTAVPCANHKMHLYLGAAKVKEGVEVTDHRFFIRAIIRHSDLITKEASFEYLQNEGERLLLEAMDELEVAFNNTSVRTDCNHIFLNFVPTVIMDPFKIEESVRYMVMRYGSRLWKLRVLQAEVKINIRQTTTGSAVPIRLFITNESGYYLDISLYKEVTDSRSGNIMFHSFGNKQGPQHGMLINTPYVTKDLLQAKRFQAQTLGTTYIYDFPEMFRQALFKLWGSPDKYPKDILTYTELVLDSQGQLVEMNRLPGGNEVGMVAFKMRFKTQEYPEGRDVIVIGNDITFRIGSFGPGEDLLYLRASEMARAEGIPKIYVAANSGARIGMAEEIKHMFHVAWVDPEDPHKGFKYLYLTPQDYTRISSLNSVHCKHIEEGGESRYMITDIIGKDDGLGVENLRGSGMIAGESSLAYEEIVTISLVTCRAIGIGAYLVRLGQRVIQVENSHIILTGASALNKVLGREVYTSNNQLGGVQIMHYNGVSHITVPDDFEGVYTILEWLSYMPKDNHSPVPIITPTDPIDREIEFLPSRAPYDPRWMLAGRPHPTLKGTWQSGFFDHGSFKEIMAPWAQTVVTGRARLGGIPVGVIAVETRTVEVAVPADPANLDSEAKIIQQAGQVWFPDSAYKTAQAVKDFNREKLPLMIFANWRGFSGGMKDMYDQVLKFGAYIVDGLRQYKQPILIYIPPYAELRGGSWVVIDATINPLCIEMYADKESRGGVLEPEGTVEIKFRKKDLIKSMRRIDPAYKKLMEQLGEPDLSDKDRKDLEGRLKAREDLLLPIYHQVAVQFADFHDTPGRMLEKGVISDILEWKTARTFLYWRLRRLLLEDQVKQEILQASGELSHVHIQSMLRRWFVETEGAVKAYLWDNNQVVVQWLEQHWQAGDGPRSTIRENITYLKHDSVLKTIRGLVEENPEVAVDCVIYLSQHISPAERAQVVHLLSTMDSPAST
Assay: ACC2 assay (spectrophotometric 384 well assay, NADH-linked kinetic method)
Format: biochemical
Conditions: hACC2 construct lacking 128 N-terminal amino acids; coupled lactate dehydrogenase/pyruvate kinase reaction, 340 nm, 25° C.
pIC50: −log10 of the molar value.
Label MET when pIC50 is at or above 7; anything below gets NOT MET.

>>> class_name("CCN(C)c1nccc(N2CCC(Oc3ccc([C@H](C)NC(=O)c4sc(NC(C)=O)nc4C)cc3)C2)n1 (stereo partly shown)")
"NOT MET"
>>> class_name("CC(=O)N[C@@H](C)c1ccc(O[C@@H]2CCN(c3ccnc(N4CCC4)n3)C2)cc1")
"NOT MET"
>>> class_name("CC(=O)N[C@@H](C)c1ccc(O[C@@H]2CCN(c3ncnc(C4CC4)c3Cl)C2)cc1")
"NOT MET"
>>> class_name("CC(=O)N[C@@H](C)c1ccc(O[C@@H]2CCN(c3ncnc(NCC4CC4)c3Cl)C2)cc1")
"MET"
>>> class_name("CC(=O)N[C@@H](C)c1ccc(O[C@@H]2CCN(c3nc(N4CCC(F)(F)CC4)ncc3Cl)C2)cc1")
"NOT MET"
>>> class_name("CC(=O)N[C@@H](C)c1ccc(O[C@@H]2CCN(c3ncnc(OC4CCCC4)c3Cl)C2)cc1")
"MET"

Exercise: Hi, just wondering whether "CCCNc1ncnc(N2CC[C@@H](Oc3ccc([C@H](C)NC(C)=O)cc3)C2)c1OC" shows pIC50 of 7 or higher.
Solution: NOT MET

Exercise: Hi, just wondering whether "CC(=O)N[C@@H](C)c1ccc(O[C@@H]2CCN(c3nc(N(C)C)ncc3F)C2)cc1" shows pIC50 of 7 or higher.
Solution: MET

Exercise: Hi, just wondering whether CC(=O)N[C@@H](C)c1ccc(O[C@@H]2CCN(c3ncnc(N4CCC(C)C4)c3F)C2)cc1 (stereo partly shown) shows pIC50 of 7 or higher.
Solution: MET

Exercise: Hi, just wondering whether "CCC(=O)Nc1nc(C)c(C(=O)N[C@@H](C)c2ccc(O[C@@H]3CCN(c4ncnc(NCC(F)F)c4Cl)C3)cc2)s1" shows pIC50 of 7 or higher.
Solution: NOT MET

Exercise: Hi, just wondering whether C[C@H](NC(=O)Nc1ccon1)c1ccc(OC2CCN(c3ccnc(N4CCOCC4)n3)C2)cc1 (stereo partly shown) shows pIC50 of 7 or higher.
Solution: NOT MET

Exercise: Hi, just wondering whether "COc1c(OCC(C)(C)OC)ncnc1N1CC[C@@H](Oc2ccc([C@H](C)NC(C)=O)cc2)C1" shows pIC50 of 7 or higher.
Solution: NOT MET

Exercise: Hi, just wondering whether "CC(=O)N[C@@H](C)c1ccc(O[C@@H]2CCN(c3nc(N(CCO)C4CC4)ncc3Cl)C2)cc1" shows pIC50 of 7 or higher.
Solution: NOT MET

Exercise: Hi, just wondering whether CC(=O)N[C@@H](C)c1ccc(O[C@@H]2CCN(c3nc(N4CCC(C)(O)C4)ncc3Cl)C2)cc1 (stereo partly shown) shows pIC50 of 7 or higher.
Solution: NOT MET
